# TESTED TARGET: T1, cis-heterodimer Hera/Hera_208-419 (Thermus thermophilus, UniProt O07897;O07897 1-510;208-419)
# T1 sequence 1: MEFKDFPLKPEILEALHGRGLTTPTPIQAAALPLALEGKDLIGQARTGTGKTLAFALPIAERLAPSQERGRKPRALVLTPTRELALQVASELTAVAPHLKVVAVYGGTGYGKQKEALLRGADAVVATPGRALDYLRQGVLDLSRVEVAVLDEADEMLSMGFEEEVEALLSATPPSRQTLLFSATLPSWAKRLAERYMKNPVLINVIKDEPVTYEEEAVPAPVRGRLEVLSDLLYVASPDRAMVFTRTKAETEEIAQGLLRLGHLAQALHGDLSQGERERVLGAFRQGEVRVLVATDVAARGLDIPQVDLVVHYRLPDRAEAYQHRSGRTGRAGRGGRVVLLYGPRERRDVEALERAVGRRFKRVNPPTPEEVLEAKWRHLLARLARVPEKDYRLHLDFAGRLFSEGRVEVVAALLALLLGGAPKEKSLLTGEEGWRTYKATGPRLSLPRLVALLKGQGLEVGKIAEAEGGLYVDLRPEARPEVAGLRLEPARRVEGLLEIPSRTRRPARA
# T1 sequence 2: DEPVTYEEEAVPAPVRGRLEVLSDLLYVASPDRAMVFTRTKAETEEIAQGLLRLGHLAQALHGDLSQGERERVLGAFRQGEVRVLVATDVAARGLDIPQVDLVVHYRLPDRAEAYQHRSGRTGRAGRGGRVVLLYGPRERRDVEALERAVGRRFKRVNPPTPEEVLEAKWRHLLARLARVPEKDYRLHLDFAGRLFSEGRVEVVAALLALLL
# PROTOCOL: fluorescence anisotropy
Items are presented alongside their recorded pKd.
Scale explanation: pKd corresponds to minus log10 of a concentration expressed in moles per litre.

{"BINDER": "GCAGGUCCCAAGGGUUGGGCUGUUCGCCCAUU (structured_RNA) [fl-32mer]", "VALUE MEASURED": 6.90}

**Q:** What does the data say about its pKd? Entry: fl-32/9mer (structured_RNA) RNA 1: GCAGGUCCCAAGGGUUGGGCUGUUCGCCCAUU RNA 2: UUGGGACCU
**A:** 5.85
